- target: T1, EGF domain 3 and 4 of recombinant human Protein S (human, UniProt P07225 201-286, limits assumed)
- T1 construct: domain: EGF domain 3 and 4; also called hEGF3-4
- T1 sequence (looked up): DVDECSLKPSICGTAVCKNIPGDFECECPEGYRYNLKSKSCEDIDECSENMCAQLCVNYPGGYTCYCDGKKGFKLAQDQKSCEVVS
- test.summary: ELISA, calcium-free TBS;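 also: binding of mouse antibodies detected by ELISA with an HRP-conjugated goat anti-mouse IgG secondary and TMB substrate development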

- binder: "M-hProtS-2F382A1 monoclonal antibody (antibody, mouse IgG1, V domains shown, Purified from hybridoma supernatant; mouse IgG1, kappa) VH: EVKLEESGGGLVQPGGSMKLSCAASGFTFSDAWMGWVRQSPEKGLEWVAEIRGKANNHATYYSESVKGRFTISRDDSKSSVYLQMNSLRAEDTGIFYCCLITAFLFDYWGQGTTLTVSS VL: QIVLTQSPAIMSASPGEKVTMTCSGRSSENYMYWYQQKPGSPPRLWIYDTSNLVSGVPARFSGSRSGTSYSLTISSMEAEDAATYYCQQFNGYPYTFGGGTKLEIRR"
  binding result: "no binding"
- binder: "M-hProtS-6F216A3 (mAb 0914) monoclonal antibody (antibody, V domains shown, Mouse IgG1, kappa) VH: QVQLQQPGAELVRPGASVKLSCKASGYTFTSYWINWVKQRPEQGLEWIGRIDPYDSETHYNQKFKDKAILTVDKSSSTAYMQLSSLTSEDSAVYYCARWGGSGYAMDYWGQGTSVTVSS VL: QIVLSQSPAILSASPGEKVTMTCRASSSVSYMYWYQQKPGSSPKPWIYATSNLASGVPARFSGSGSGTSYSLTISRVEAEDAATYYCQQWSSIPPTFGGGTKLEIKR"
  binding result: "no binding"
- binder: "M-hProtS-6F153A2 monoclonal antibody (antibody, mouse IgG1, V domains shown, Tested as antibody purified from hybridoma supernatant; mouse IgG1, kappa) VH: QIQLVQSGPELKKPGETVKISCKASGYTFSDYSMHWVKQTPGEGLKWMGWMNTGTGEPTYADDFKGRFAFSLETSATTAHLQINNLKNEDTATYFCARRLYYGTGLAYWGQGTLVTVSA VL: DIVMTQSHKFMSTSVGDRVSITCKASQDVSTGVAWYQQKPGQSPKLLIFSASSRYSGVPDRFTGSGSGTDFTFTISSVQAEDLAVYYCQQHYSSPRTFGGGTKLEIKR"
  binding result: "no binding"
